Target: δ-opioid receptors (Rattus norvegicus, UniProt P33533)
Construct: assayed with a rat brain synaptosomal preparation (P2); from tissue; host or cells: rat brain P2 synaptosomes
Sequence (P33533 whole entry): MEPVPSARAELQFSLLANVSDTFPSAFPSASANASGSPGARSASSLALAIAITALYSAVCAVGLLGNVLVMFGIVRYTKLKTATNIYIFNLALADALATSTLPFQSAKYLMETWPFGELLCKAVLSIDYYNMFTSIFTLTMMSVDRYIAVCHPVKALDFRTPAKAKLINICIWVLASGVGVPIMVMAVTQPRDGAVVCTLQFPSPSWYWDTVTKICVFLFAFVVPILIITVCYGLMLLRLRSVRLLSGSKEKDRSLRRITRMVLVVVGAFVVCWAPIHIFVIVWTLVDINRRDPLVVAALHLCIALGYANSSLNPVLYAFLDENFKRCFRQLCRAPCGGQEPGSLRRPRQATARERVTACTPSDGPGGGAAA
Assay: Rat brain synaptosome (P2) binding, agonist [3H]DPDPE (Example 47)
Details: rat brain synaptosomes (P2); mean ± SEM, n in parentheses; read-out: Kiδ(nM) [^3H]DPDPE
Non-standard residues stand in square brackets, D forms with d. Residues, ends and D or L forms follow the SMILES beside them. *: point of attachment. Dmt = Cc1cc(O)cc(C)c1C[C@H](N)C(=O)O; Tic = O=C(O)[C@@H]1Cc2ccccc2CN1; NHtBu = CC(C)(C)N*
Test readout: Ki (nM)
# value in nM; strip the unit string

Below, each entry is followed by its recorded Ki result.
The reported Ki of the compound COC(=O)[C@@H]1Cc2ccccc2CN1C(=O)[C@@H](N)Cc1c(C)cc(O)cc1C [Compound 8, H-Dmt-Tic-OMe] (H-[Dmt]-[Tic]-OMe) was 9.64

The reported Ki of the compound Cc1cc(O)cc(C)c1C[C@H](N)C(=O)N1Cc2ccccc2C[C@H]1C(=O)Nc1nnn[nH]1 [Compound 10, H-Dmt-Tic-NH-tetrazole-5-yl] was 0.7

The reported Ki of the compound Cc1cc(O)cc(C)c1C[C@H](N)C(=O)N1Cc2ccccc2C[C@H]1C(=O)N[C@@H](C)C(=O)NC(C)(C)C [Compound 20, H-Dmt-Tic-Ala-NH-tBu] (H-[Dmt]-[Tic]-Ala-NHtBu; N-terminus and C-terminus assumed) was 0.066

Okay, next one:
The reported Ki of the compound Cc1cc(O)cc(C)c1C[C@@H](C(=O)N1Cc2ccccc2C[C@H]1C(=O)O)N1CCCCC1 [Compound 3, [des-NH2-α-piperidine-1-yl]-Dmt-Tic-OH] was 1.18

###

Target: μ-opioid receptors (Rattus norvegicus)
Construct: assayed with a rat brain synaptosomal preparation (P2); from tissue; host or cells: rat brain P2 synaptosomes
Sequence (P33535 whole entry): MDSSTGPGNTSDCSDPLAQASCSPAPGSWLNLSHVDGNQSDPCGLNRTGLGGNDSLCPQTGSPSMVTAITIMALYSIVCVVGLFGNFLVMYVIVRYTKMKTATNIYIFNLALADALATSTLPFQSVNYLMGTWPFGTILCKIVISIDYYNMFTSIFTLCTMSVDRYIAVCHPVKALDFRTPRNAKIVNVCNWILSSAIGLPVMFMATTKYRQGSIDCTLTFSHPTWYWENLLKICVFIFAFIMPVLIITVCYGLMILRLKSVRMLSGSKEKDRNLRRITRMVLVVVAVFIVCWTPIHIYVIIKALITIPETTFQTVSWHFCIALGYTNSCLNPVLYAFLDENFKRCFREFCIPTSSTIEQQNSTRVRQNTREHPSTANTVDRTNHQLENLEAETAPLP
Test: Rat brain synaptosome (P2) binding, [3H]DAGO (Example 47)
Conditions: rat brain synaptosomes (P2); mean ± SEM, n in parentheses; read-out: Kiμ (nM) [^3H]DAGO
Non-standard residues stand in square brackets, D forms with d. Residues, ends and D or L forms follow the SMILES beside them. Dmt = Cc1cc(O)cc(C)c1C[C@H](N)C(=O)O; Tic = O=C(O)[C@@H]1Cc2ccccc2CN1
Test readout: Ki (nM)
# value in nM; strip the unit string

Below, each entry is followed by its recorded Ki result.
The reported Ki of the compound "Cc1cc(O)cc(C)c1C[C@H](N)C(=O)N1Cc2ccccc2C[C@H]1CC(=O)O" was 418

The reported Ki of the compound COC(=O)[C@@H]1Cc2ccccc2CN1C(=O)[C@@H](N)Cc1c(C)cc(O)cc1C [Compound 8, H-Dmt-Tic-OMe] (H-[Dmt]-[Tic]-OMe) was 423

Okay, next one:
The reported Ki of the compound "Cc1cc(O)cc(C)c1C[C@@H](C(=O)N1Cc2ccccc2C[C@H]1C(=O)NC(C)(C)C)N(C)C" was 226

###

Biological target: δ receptors (Mus musculus)
Sequence (P32300 whole entry): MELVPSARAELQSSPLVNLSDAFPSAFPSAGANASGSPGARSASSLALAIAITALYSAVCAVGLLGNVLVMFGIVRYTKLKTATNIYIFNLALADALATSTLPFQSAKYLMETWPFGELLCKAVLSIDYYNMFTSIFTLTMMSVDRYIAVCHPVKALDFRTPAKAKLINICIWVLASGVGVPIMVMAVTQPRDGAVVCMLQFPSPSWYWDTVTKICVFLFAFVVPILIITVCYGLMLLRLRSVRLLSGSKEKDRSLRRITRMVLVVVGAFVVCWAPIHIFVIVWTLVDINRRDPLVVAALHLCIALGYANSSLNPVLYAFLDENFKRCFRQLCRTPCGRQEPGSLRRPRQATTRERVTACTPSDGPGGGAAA
Settings: MVD pA2 (range), δ antagonism against deltorphin C; mean (range)
Non-standard residues stand in square brackets, D forms with d. Residues, ends and D or L forms follow the SMILES beside them. *: point of attachment. Dmt = Cc1cc(O)cc(C)c1C[C@H](N)C(=O)O; Tic = O=C(O)[C@@H]1Cc2ccccc2CN1; NHtBu = CC(C)(C)N*
Test readout: Kb (nM)
# value in nM; strip the unit string

Below, each entry is followed by its recorded Kb result.
"Cc1cc(O)cc(C)c1C[C@H](N)C(=O)N1Cc2ccccc2C[C@H]1CC(=O)O" on δ receptors (Mus musculus) gives Kb = 1.58

"Cc1cc(O)cc(C)c1C[C@H](N)C(=O)N1Cc2ccccc2C[C@H]1C(=O)N[C@@H](C)C(=O)NC12CC3CC(CC(C3)C1)C2" on δ receptors (Mus musculus) gives Kb = 0.513

Cc1cc(O)cc(C)c1C[C@H](N)C(=O)N1Cc2ccccc2C[C@H]1C(=O)N[C@@H](C)C(=O)NC(C)(C)C [Compound 20, H-Dmt-Tic-Ala-NH-tBu] (H-[Dmt]-[Tic]-Ala-NHtBu; N-terminus and C-terminus assumed) on δ receptors (Mus musculus) gives Kb = 0.692

Okay, next one:
Cc1cc(O)cc(C)c1C[C@@H](C(=O)N1Cc2ccccc2C[C@H]1C(=O)O)N1CCCC1 [Compound 4, [des-NH2-α-pyrrolidine-1-yl]-Dmt-Tic-OH] on δ receptors (Mus musculus) gives Kb = 126

###

Entries and their Antagonist K1μ/Kiδ values follow.
Target: δ-opioid receptors (Rattus norvegicus, UniProt P33533)
Construct: assayed with a rat brain synaptosomal preparation (P2); from tissue; host or cells: rat brain P2 synaptosomes
Assay: Rat brain synaptosome (P2) binding, δ antagonist [3H]N,N(CH3)2-Dmt-Tic-OH (Example 47)
Settings: selectivity; Kiδ from antagonist radioligand [3H]N,N(CH3)2-Dmt-Tic-OH
Non-standard residues stand in square brackets, D forms with d. Residues, ends and D or L forms follow the SMILES beside them. *: point of attachment. Dmt = Cc1cc(O)cc(C)c1C[C@H](N)C(=O)O; Tic = O=C(O)[C@@H]1Cc2ccccc2CN1; NHNH2 = NN*
Keep it simple and answer with nothing but the number.

Below, each entry is followed by its recorded Antagonist K1μ/Kiδ result.
"Cc1cc(O)cc(C)c1C[C@@H](C(=O)N1Cc2ccccc2C[C@H]1C(=O)NC12CC3CC(CC(C3)C1)C2)N(C)C" on δ-opioid receptors (Rattus norvegicus, UniProt P33533) gives Antagonist K1μ/Kiδ = 9

"CNC(=O)[C@@H]1Cc2ccccc2CN1C(=O)[C@H](Cc1c(C)cc(O)cc1C)N(C)C" on δ-opioid receptors (Rattus norvegicus, UniProt P33533) gives Antagonist K1μ/Kiδ = 1268

Cc1cc(O)cc(C)c1C[C@@H](C(=O)N1Cc2ccccc2C[C@H]1C(=O)O)N1CCCC1 [Compound 4, [des-NH2-α-pyrrolidine-1-yl]-Dmt-Tic-OH] on δ-opioid receptors (Rattus norvegicus, UniProt P33533) gives Antagonist K1μ/Kiδ = 573

COC(=O)[C@@H]1Cc2ccccc2CN1C(=O)[C@@H](N)Cc1c(C)cc(O)cc1C [Compound 8, H-Dmt-Tic-OMe] (H-[Dmt]-[Tic]-OMe) on δ-opioid receptors (Rattus norvegicus, UniProt P33533) gives Antagonist K1μ/Kiδ = 0.8

Cc1cc(O)cc(C)c1C[C@H](N)C(=O)N1Cc2ccccc2C[C@H]1C(=O)NN [Compound 6, H-Dmt-Tic-NHNH2] (H-[Dmt]-[Tic]-NHNH2) on δ-opioid receptors (Rattus norvegicus, UniProt P33533) gives Antagonist K1μ/Kiδ = 2

Others:
Cc1cc(O)cc(C)c1C[C@@H](C(=O)N1Cc2ccccc2C[C@H]1C(=O)O)n1cccc1 [Compound 5, [des-NH2-α-pyrrole-1-yl]-Dmt-Tic-OH] on δ-opioid receptors (Rattus norvegicus, UniProt P33533) gives Antagonist K1μ/Kiδ = 562

###

Entries and their MVD Ke values follow.
Molecular target: δ receptors (Mus musculus)
Conditions: δ antagonism; Ke = antilog of pA2
Non-standard residues stand in square brackets, D forms with d. Residues, ends and D or L forms follow the SMILES beside them. Dmt = Cc1cc(O)cc(C)c1C[C@H](N)C(=O)O; Tic = O=C(O)[C@@H]1Cc2ccccc2CN1
# value in nM; strip the unit string

Below, each entry is followed by its recorded MVD Ke result.
The reported MVD Ke of the molecule Cc1cc(O)cc(C)c1C[C@H](N)C(=O)N1Cc2ccccc2C[C@H]1C(=O)N[C@@H](C)C(N)=O [H-Dmt-Tic-Ala-NH2, reference compound] (H-[Dmt]-[Tic]-Ala-NH2) was 9.0

The reported MVD Ke of the molecule Cc1cc(O)cc(C)c1C[C@@H](C(=O)N1Cc2ccccc2C[C@H]1C(=O)O)n1cccc1 [Compound 5, [des-NH2-α-pyrrole-1-yl]-Dmt-Tic-OH] was 408

Others:
The reported MVD Ke of the molecule "Cc1cc(O)cc(C)c1C[C@@H](C(=O)N1Cc2ccccc2C[C@H]1C(=O)NC(C)(C)C)N(C)C" was 14.1

###

Molecular target: δ-opioid receptors (Rattus norvegicus, UniProt P33533)
Construct: assayed with a rat brain synaptosomal preparation (P2); from tissue; host or cells: rat brain P2 synaptosomes
Experiment: Rat brain synaptosome (P2) binding, δ antagonist [3H]N,N(CH3)2-Dmt-Tic-OH (Example 47)
Conditions: selectivity; Kiδ from antagonist radioligand [3H]N,N(CH3)2-Dmt-Tic-OH
Non-standard residues stand in square brackets, D forms with d. Residues, ends and D or L forms follow the SMILES beside them. *: point of attachment. Dmt = Cc1cc(O)cc(C)c1C[C@H](N)C(=O)O; Tic = O=C(O)[C@@H]1Cc2ccccc2CN1; NHtBu = CC(C)(C)N*
Test readout: Antagonist K1μ/Kiδ
Keep it simple and answer with nothing but the number.

Below, each entry is followed by its recorded Antagonist K1μ/Kiδ result.
The reported Antagonist K1μ/Kiδ of the compound "Cc1cc(O)cc(C)c1C[C@H](N)C(=O)N1Cc2ccccc2C[C@H]1C(=O)NC12CC3CC(CC(C3)C1)C2" was 0.8

The reported Antagonist K1μ/Kiδ of the compound Cc1cc(O)cc(C)c1C[C@H](N)C(=O)N1Cc2ccccc2C[C@H]1C(=O)N[C@@H](C)C(=O)NC(C)(C)C [Compound 20, H-Dmt-Tic-Ala-NH-tBu] (H-[Dmt]-[Tic]-Ala-NHtBu; N-terminus and C-terminus assumed) was 48

Okay, next one:
The reported Antagonist K1μ/Kiδ of the compound CNC(=O)[C@H](C)NC(=O)[C@@H]1Cc2ccccc2CN1C(=O)[C@@H](N)Cc1c(C)cc(O)cc1C [Compound 18, H-Dmt-Tic-Ala-NHMe] (H-[Dmt]-[Tic]-Ala-NHMe) was 47
